biological target: IKZF2 (Homo sapiens (Human), UniProt Q96SW2+Q9UKS7); assay: In vitro IKZF2 HiBit Assay (HEK293T Flp-in-HiBiT cells); type: cell-based; conditions: HEK-293T; HEK293T Flp-in-HiBiT cells, 6 hrs incubation; read-out: IKZF2 HiBit Dmax (%)
Sequence (Q9UKS7 whole entry): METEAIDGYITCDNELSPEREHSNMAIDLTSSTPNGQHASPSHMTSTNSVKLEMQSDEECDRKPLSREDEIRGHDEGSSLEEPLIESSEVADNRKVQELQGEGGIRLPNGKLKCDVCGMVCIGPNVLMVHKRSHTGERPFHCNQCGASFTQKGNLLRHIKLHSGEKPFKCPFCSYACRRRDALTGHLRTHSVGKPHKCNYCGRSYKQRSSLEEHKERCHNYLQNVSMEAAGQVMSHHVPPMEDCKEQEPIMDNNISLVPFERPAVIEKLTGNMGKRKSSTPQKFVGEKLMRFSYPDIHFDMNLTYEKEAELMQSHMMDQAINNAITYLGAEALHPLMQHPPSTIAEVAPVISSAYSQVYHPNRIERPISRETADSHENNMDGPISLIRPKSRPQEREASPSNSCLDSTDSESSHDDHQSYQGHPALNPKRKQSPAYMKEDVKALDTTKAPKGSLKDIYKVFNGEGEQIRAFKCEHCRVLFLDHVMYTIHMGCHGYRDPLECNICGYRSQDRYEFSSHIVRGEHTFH
Sequence (Q96SW2 whole entry): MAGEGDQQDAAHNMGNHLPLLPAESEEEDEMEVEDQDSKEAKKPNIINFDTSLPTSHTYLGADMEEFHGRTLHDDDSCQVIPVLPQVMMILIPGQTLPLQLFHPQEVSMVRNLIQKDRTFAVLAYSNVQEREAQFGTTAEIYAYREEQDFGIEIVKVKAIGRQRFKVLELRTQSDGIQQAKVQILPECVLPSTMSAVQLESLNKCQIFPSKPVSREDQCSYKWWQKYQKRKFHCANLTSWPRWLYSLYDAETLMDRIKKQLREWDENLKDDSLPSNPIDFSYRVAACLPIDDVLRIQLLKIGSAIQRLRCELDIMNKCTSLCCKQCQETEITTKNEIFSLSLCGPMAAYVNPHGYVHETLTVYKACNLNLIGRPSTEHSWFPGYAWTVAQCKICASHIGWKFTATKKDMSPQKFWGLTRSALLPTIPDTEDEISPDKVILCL
Sequence (Q16531 2-1140 partner): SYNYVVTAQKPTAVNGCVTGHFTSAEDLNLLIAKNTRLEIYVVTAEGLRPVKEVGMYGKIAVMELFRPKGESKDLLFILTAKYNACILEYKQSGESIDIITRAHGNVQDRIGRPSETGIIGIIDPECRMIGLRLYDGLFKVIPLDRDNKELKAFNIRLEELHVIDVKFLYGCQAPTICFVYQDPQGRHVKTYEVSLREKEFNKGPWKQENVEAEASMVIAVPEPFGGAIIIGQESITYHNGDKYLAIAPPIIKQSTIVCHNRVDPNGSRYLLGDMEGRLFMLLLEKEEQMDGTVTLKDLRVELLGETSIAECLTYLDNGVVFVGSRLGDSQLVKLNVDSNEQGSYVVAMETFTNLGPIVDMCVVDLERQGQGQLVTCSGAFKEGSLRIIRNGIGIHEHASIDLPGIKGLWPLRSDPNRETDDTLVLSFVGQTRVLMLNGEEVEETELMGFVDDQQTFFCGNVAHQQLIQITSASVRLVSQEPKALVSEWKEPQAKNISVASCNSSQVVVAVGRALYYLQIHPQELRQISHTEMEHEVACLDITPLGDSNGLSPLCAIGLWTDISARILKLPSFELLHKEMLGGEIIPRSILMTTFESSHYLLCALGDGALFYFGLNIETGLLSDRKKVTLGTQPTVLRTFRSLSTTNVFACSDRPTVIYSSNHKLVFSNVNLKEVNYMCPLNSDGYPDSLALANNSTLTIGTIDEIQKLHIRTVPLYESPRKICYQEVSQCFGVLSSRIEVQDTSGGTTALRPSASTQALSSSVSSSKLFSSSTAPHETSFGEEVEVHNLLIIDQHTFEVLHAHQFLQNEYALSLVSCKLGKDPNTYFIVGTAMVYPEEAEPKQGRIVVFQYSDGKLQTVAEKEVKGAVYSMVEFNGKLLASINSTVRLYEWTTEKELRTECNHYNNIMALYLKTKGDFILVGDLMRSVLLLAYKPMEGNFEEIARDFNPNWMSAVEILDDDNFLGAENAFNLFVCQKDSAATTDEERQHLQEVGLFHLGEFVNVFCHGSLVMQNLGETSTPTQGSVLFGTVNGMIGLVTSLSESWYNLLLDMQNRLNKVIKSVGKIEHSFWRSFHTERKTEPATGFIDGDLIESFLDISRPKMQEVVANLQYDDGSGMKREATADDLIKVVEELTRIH
Assay endpoint: Dmax

Illustrative cases are given below, each with its answer.
Molecule	Dmax
Cn1cc(-n2ccc3c(CN4CCCC4)cc(-c4ccc5c(c4)CN(C4CCC(=O)NC4=O)C5=O)nc32)cn1 (stereo not shown)	> 80%
COc1cc2c(cc1-c1cc(CN3CCCC3)cc3cncn13)CN(C1CCC(=O)NC1=O)C2=O (stereo not shown)	< 20%
Cn1ccc2c(CN3CCCC3)c(Cl)c(-c3ccc4c(c3F)CN(C3CCC(=O)NC3=O)C4=O)nc21 (stereo not shown)	> 80%
O=C1CCC(N2Cc3cc(-c4cc(CN5CCCC5)c5cc[nH]c5n4)ccc3C2=O)C(=O)N1 (stereo not shown)	> 80%
CCn1nc(N)c2nc(-c3ccc4c(c3)CN(C3CCC(=O)NC3=O)C4=O)cc(CN3CCCC3)c21 (stereo not shown)	60 to 80%
Cn1cnc2c(CN3CCCC3)cc(-c3ccc4c(c3)CN(C3CCC(=O)NC3=O)C4=O)nc21 (stereo not shown)	> 80%

Request: What does the record list as Dmax for CC(C)C1CN(Cc2cc(-c3ccc4c(c3)CN(C3CCC(=O)NC3=O)C4=O)nc3[nH]ccc23)CC1O (stereo not shown) ?
Response: > 80%

---

target: IKZF2 (Homo sapiens (Human), UniProt Q96SW2+Q9UKS7); experiment: In vitro IKZF2 Western Blot Assay in Jurkat cells; assay type: cell-based; conditions: 24 hrs, 0.01 μM, read-out: IKZF2 degradation (%) @ μM 0.01
Assay endpoint: inhibition at 0.01 µM

Answered cases to consult:
Molecule	inhibition at 0.01 µM
O=C1CCC(N2Cc3cc(-c4cc(CN5CCCCC5)cn5ccnc45)ccc3C2=O)C(=O)N1 (stereo not drawn)	> 50%
O=C1CCC(N2Cc3cc(-c4cc(CN5CCCC5c5ccccc5)cn5ccnc45)ccc3C2=O)C(=O)N1 (stereo not drawn)	< 30%
O=C1CCC(N2Cc3cc(-c4cc(CNCCc5ccccc5Cl)cn5ccnc45)ccc3C2=O)C(=O)N1 (stereo not drawn)	< 30%
O=C1CCC(N2Cc3cc(-c4cc(CNCCc5ccccc5Cl)cc5cncn45)ccc3C2=O)C(=O)N1 (stereo not drawn)	> 50%
O=C1CCC(N2Cc3cc(-c4cc(CNCCc5c(Cl)cccc5Cl)cn5ccnc45)ccc3C2=O)C(=O)N1 (stereo not drawn)	< 30%

Take each entry in turn and give its inhibition at 0.01 µM.
1. O=C1CCC(N2Cc3cc(-c4cc(CN5CCCC5c5ccccc5)cc5cncn45)ccc3C2=O)C(=O)N1 (stereo not drawn)
2. O=C1CCC(N2Cc3cc(-c4cc(CN5CCC(C(F)(F)F)CC5)cn5ccnc45)ccc3C2=O)C(=O)N1 (stereo not drawn)
3. CC1(C)CCN(Cc2cc(-c3ccc4c(c3)CN(C3CCC(=O)NC3=O)C4=O)c3nccn3c2)CC1 (stereo not drawn)
4. O=C1CCC(N2Cc3cc(-c4cc(CNCCc5ccc(Cl)cc5Cl)cn5ccnc45)ccc3C2=O)C(=O)N1 (stereo not drawn)
5. O=C1CCC(N2Cc3cc(-c4cc(CNCc5ccccc5Cl)cn5ccnc45)ccc3C2=O)C(=O)N1 (stereo not drawn)
6. CC(NCc1cc(-c2ccc3c(c2)CN(C2CCC(=O)NC2=O)C3=O)c2nccn2c1)c1ccccc1 (stereo not drawn)
7. O=C1CCC(N2Cc3cc(-c4cc(CNCCc5ccccc5C(F)(F)F)cn5ccnc45)ccc3C2=O)C(=O)N1 (stereo not drawn)

Response:
1. < 30%
2. < 30%
3. 30 to 50%
4. < 30%
5. < 30%
6. < 30%
7. < 30%

---

Can you tell me Dmax for the items I'm about to list?
biological target: IKZF2 (Homo sapiens (Human), UniProt Q96SW2+Q9UKS7); assay: In vitro IKZF2 HiBit Assay (HEK293T Flp-in-HiBiT cells); assay type: cell-based; conditions: HEK-293T; HEK293T Flp-in-HiBiT cells, 6 hrs incubation; read-out: IKZF2 HiBit Dmax (%)

Each compound below has a reported value. Please supply its Dmax.
1. Nc1n[nH]c2c(CN3CC4COCC(C4)C3)cc(-c3ccc4c(c3)CN(C3CCC(=O)NC3=O)C4=O)nc12 (stereo not shown) [Example 215]
2. CC(C)n1ccc2nc(-c3ccc4c(c3)CN(C3CCC(=O)NC3=O)C4=O)cc(CN3CCCC3)c21 (stereo not shown) [Example 172]
3. O=C1CCC(N2Cc3cc(-c4ncc5cc(CN6CCCC6)ccn45)ccc3C2=O)C(=O)N1 (stereo not shown) [Example 52]
4. O=C1CCC(N2Cc3cc(-c4cc(CN5CCC(F)CC5)c5ccn(C6COC6)c5n4)ccc3C2=O)C(=O)N1 (stereo not shown) [Example 187]
5. O=C1CCC(N2Cc3cc(-c4cc(CN5CCCC5C(F)F)c5ccn(C6COC6)c5n4)ccc3C2=O)C(=O)N1 (stereo not shown) [Example 252]
6. O=C1CCC(N2Cc3c(ccc(-c4cc(CN5CC6COCC6C5)c5ccn(C6CS(=O)(=O)C6)c5n4)c3F)C2=O)C(=O)N1 (stereo not shown) [Example 269]

Response:
1. > 80%
2. 60 to 80%
3. 60 to 80%
4. > 80%
5. 40 to 60%
6. > 80%

Request: Please look up its Dmax: Cn1ccc2c(CN3CCCC3)cc(-c3ccc4c(c3)CN(C3CCC(=O)NC3=O)C4=O)nc21 (stereo not shown) [Example 55]
Response: > 80%

---

Target: CRBN/DDB1 (Homo sapiens (Human), UniProt Q96SW2)
Sequence (Q96SW2 whole entry, species assumed): as the sequence (Q96SW2 whole entry) above
Sequence (Q16531 whole entry partner, species assumed): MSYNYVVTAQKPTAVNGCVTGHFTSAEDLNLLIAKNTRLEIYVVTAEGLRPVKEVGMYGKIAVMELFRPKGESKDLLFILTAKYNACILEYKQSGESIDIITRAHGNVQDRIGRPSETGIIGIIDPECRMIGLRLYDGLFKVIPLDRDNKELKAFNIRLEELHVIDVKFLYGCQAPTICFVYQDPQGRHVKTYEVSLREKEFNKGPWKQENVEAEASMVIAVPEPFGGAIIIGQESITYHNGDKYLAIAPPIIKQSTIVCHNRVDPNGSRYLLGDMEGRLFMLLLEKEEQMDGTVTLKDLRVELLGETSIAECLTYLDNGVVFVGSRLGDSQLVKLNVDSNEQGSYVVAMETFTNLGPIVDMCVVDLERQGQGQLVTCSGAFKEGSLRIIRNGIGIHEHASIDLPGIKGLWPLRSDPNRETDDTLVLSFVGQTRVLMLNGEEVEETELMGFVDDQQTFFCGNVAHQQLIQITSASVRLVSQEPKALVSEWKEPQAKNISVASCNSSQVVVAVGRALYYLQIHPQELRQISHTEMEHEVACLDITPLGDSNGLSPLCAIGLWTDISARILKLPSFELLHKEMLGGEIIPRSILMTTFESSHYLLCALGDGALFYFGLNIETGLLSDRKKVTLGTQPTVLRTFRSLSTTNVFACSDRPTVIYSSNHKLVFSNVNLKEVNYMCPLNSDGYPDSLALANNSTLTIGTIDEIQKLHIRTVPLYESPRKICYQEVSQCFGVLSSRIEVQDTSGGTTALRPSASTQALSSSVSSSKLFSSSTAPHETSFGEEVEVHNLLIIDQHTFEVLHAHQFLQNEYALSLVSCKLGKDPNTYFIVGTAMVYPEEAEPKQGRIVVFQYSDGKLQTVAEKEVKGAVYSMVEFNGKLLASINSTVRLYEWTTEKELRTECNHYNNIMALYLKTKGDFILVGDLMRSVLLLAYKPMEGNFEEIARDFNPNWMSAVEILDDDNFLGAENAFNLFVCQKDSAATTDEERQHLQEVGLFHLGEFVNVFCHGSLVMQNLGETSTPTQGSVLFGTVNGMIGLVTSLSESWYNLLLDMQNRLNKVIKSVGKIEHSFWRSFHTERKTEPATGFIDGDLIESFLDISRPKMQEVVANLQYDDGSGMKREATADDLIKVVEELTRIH
Assay: IC50 measurements for binding to CRBN/DDB1 (HTRF)
Conditions: His tagged CRBN+DDB, Cy5-labeled Thalidomide probe, one hour
Procedure: In vitro Assay: IC50 Measurements for binding to CRBN/DDB1 (Table E1) The binding potency was determined using HTRF assay technology (Perkin Elmer). Compounds were serially diluted in DMSO and 0.2 μL volume was transferred to white 384-well plate. […]
Assay endpoint: IC50

Compound	IC50
CCn1ccc2c(CN3CCCC3)cc(-c3ccc4c(c3)CN(C3CCC(=O)NC3=O)C4=O)nc21 (stereo not shown)	500 to 1000 nM

# per-item lookup of IC50; items listed below
1. Nc1n[nH]c2c(CN3CCC(F)C3)cc(-c3ccc4c(c3)CN(C3CCC(=O)NC3=O)C4=O)nc12 (stereo not shown)
2. O=C1CCC(N2Cc3cc(-c4cc(CN5CCCC5c5ccccc5)cc5nncn45)ccc3C2=O)C(=O)N1 (stereo not shown)
3. O=C1CCC(N2Cc3cc(-c4cc(CN5CCCC5)c5ccn(C6COC6)c5n4)ccc3C2=O)C(=O)N1 (stereo not shown)

Response:
1: 500 to 1000 nM; 2: 1000 to 5000 nM; 3: 100 to 500 nM

---

Can you tell me IC50 for the items I'm about to list?
target: CRBN/DDB1 (Homo sapiens (Human)); assay: IC50 measurements for binding to CRBN/DDB1 (HTRF); settings: His tagged CRBN+DDB, Cy5-labeled Thalidomide probe, one hour

Worked cases, answers included:
Molecule	Result
O=C1CCC(N2Cc3cc(-c4cc(CN5CCCC5)c5nccc(OC6CCC6)c5n4)ccc3C2=O)C(=O)N1 (stereo not shown)	1000 to 5000 nM
Cn1ccc2c(CN3CC4(COC4)C3)cc(-c3ccc4c(c3)CN(C3CCC(=O)NC3=O)C4=O)nc21 (stereo not shown)	500 to 1000 nM
O=C1CCC(N2Cc3cc(-c4cc(CN5CC(O)C5)c5ccn(C6COC6)c5n4)ccc3C2=O)C(=O)N1 (stereo not shown)	< 100 nM

Please state, for each entry, its recorded IC50.
1. O=C1CCC(N2Cc3cc(-c4cc(CN5CCCC5)c5ccn(C6CC6)c5n4)ccc3C2=O)C(=O)N1 (stereo not shown)
2. O=C1CCC(N2Cc3cc(-c4cc(CN5CCCC5)c5c(n4)CCCC5)ccc3C2=O)C(=O)N1 (stereo not shown)
3. O=C1CCC(N2Cc3cc(-c4cc(CN5CCCC5)cc5cncn45)c(F)cc3C2=O)C(=O)N1 (stereo not shown)
4. COc1cc(-c2cc(CN3CCCC3)cc3cncn23)cc2c1C(=O)N(C1CCC(=O)NC1=O)C2 (stereo not shown)

Response:
1: 1000 to 5000 nM; 2: 100 to 500 nM; 3: 1000 to 5000 nM; 4: 100 to 500 nM

---

biological target: IKZF2 (Homo sapiens (Human), UniProt Q96SW2+Q9UKS7); experiment: In vitro IKZF2 HiBit Assay (HEK293T Flp-in-HiBiT cells); format: cell-based; conditions: HEK-293T; HEK293T Flp-in-HiBiT cells, 6 hrs incubation; read-out: IKZF2 HiBit Dmax (%)
Assay endpoint: Dmax

Your task in this section: give Dmax for each listed record.
1. CC(C)CC1CCN(Cc2cc(-c3ccc4c(c3)CN(C3CCC(=O)NC3=O)C4=O)nc3[nH]ccc23)C1 (stereo not drawn)
2. Cc1nc2nc(-c3ccc4c(c3)CN(C3CCC(=O)NC3=O)C4=O)cc(CN3CCCC3)c2o1 (stereo not drawn)
3. CC(C)Nc1n[nH]c2c(CN3CCC(F)C3)cc(-c3ccc4c(c3F)CN(C3CCC(=O)NC3=O)C4=O)nc12 (stereo not drawn)

Response:
["> 80%", "> 80%", "60 to 80%"]
